Data provenance: ChEMBL document CHEMBL1201862

test system: SF-295; assay: NCI tumour cell line growth inhibition, 48 h
The source made the active and inactive calls. Rule as the data show it: active = GI50 up to about 1.1 µM and inactive = higher.
ATTRIBUTE MEASURED: GI50

| SAMPLE SMILES | VALUE MEASURED |
| --- | --- |
| CCCSc1ccc2[nH]c(/N=C/c3ccco3)cc2c1 | > 100 µM (inactive) |
| CCOc1ccc(/N=C/c2cccc3cccnc23)cc1 | > 100 µM (inactive) |
| COc1ccc(NC(=S)N/N=C/c2c(C)n(C)n(-c3ccccc3)c2=O)cc1 | 37.9 µM (inactive) |
| Cc1ccc2c(=O)c3c(O)c4c(cc3n(C)c2c1)OC(C)(C)C=C4 | > 10 µM (inactive) |

We next turn to a different molecule, shown below.
For this molecule ( `O=C1NC(=S)N/C1=C\c1ccc(Cl)cc1` ), measured GI50 is > 100 µM (inactive)

* * *

tested on: HT-29; test: NCI tumour cell line growth inhibition, 48 h
The source made the active and inactive calls. No stated cut-off is given here; in the data, active = GI50 up to about 1.1 µM and inactive = higher.
ATTRIBUTE MEASURED: GI50

| COMPOUND | GI50 |
| --- | --- |
| C=CCN(N=O)C(=O)N(CCCC(NC(C)=O)C(=O)NCc1ccccc1)Cc1ccccc1 (stereo unspecified) | 24.2 µM (inactive) |
| O=C(CCC(=O)c1ccc(Cl)cc1)NO | > 100 µM (inactive) |
| O=C(O)CCCCC1CCSS1 (stereo unspecified) | > 100 µM (inactive) |
| COc1cc(C2c3cc4c(cc3[C@@H](NCCN3CCOCC3)C3COC(=O)[C@H]23)OCO4)cc(OC)c1O (stereo partly specified) | 4.65 µM (inactive) |
| O=C1CN2CCN(CC2)CC(=O)Nc2ccc(cc2)S(=O)(=O)c2ccc(cc2)NC(=O)CN2CCN(CC2)CC(=O)Nc2ccc(cc2)S(=O)(=O)c2ccc(cc2)N1 | 15 µM (inactive) |
| O=[N+]([O-])c1cc(Cl)cc2cc(Cl)cnc12 | > 100 µM (inactive) |

Item: `CN(C)C(=S)SCC(=O)Nc1ccccc1` | GI50: > 100 µM (inactive)

So, `Cc1cc(NCCCCCCCNc2cc(C)nc3cc(N)ccc23)c2ccc(N)cc2n1` ? Its GI50 was 34 µM (inactive)

// field: GI50; key: `C/C(=N/NC(=S)Nc1ccc(C)cc1)c1ccccn1` ; value = < 0.0366 µM (active)

Entry `Oc1cc(CF)nc(S)n1` — recorded GI50 = > 100 µM (inactive)

# GI50 of `OCCN(CO)CO` = > 100 µM (inactive)

* * *

system: 786-0; experiment: NCI tumour cell line growth inhibition, 48 h
The source made the active and inactive calls. Cut-off read from the data, not from the text of the source: active = GI50 up to about 1.1 µM and inactive = higher.
Parameter call: string, one of active, inactive

Example cases with answers are listed next.
| COMPOUND | CAT |
| --- | --- |
| O=C1C(c2ccc(Br)cc2)=[N+]([O-])c2ccccc21 | inactive |
| Cc1ccsc1C(=S)Nc1ccc(Cl)c(/C=N/OC(C)C)c1 | inactive |
| CC[C@H](NC1=C(Cl)C(=O)c2c(O)ccc(O)c2C1=O)C(=O)OC | inactive |

Hello, I am checking results. What call was entered for `O=C(O)c1cc(-c2ccc(-c3ccccc3)cc2)nc2cc3ccccc3cc12` ?
inactive

Fill in: this test's call for `Cc1ccc(S(=O)(=O)SCc2ccccc2)cc1` is ___
inactive

So what was the verdict on O=C(O)/C=C/C(=O)O [FUMARIC ACID] in this test?
inactive

Just curious, what result did `CSc1c(C#N)c(O)nc(N)c1C(=O)Nc1ccc(C)cc1` get here?
inactive
